# EXPERIMENTAL SYSTEM: UniProt:Q96RI1
# METHOD NOTES: FXR-mediated transactivation, luciferase reporter in HepG2 cells
# CONDITION NOTES: dose-response 0.1-75 µM, read-out: FXR ECso
PARAMETER MEASURED: EC50

Bench note, UniProt:Q96RI1: COC(=O)c1cccc(OCc2ccc3ccccc3n2)c1 [CHIN104, Methyl 3-(Quinolin-2-ylmethoxy)Benzoate] , EC50 reads 9 µM

====

# EXPERIMENTAL SYSTEM: FXR (Homo sapiens)
# Construct: expressed in transfected cells; host or cells: HepG2
# Sequence (Q96RI1 whole entry, species assumed): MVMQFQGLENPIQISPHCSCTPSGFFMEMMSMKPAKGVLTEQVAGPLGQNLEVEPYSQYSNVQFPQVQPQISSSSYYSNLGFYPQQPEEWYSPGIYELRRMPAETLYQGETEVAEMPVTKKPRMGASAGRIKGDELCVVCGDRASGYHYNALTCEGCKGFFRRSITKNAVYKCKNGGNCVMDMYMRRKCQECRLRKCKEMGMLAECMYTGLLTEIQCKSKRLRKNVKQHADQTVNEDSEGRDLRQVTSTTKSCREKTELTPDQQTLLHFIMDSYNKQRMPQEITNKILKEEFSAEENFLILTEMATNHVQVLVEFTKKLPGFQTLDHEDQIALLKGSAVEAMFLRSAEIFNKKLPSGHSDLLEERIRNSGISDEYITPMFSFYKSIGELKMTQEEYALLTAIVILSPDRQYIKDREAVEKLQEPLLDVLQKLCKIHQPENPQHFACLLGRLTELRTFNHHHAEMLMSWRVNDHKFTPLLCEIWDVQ
# Sequence (P19793 whole entry partner, species assumed): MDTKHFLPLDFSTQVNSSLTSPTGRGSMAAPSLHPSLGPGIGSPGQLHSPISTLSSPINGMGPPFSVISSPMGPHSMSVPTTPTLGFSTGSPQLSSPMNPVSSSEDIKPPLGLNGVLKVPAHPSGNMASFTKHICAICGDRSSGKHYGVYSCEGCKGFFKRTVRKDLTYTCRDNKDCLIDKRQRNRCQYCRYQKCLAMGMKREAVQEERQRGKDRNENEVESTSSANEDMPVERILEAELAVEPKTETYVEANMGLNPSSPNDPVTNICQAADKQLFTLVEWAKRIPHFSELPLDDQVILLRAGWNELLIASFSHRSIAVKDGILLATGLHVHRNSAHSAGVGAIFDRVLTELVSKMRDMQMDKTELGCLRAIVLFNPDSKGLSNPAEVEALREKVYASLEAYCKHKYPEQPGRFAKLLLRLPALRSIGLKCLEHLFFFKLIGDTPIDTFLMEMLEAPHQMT
# METHOD NOTES: FXR-mediated transactivation, luciferase reporter in HepG2 cells
# Type: cell-based
# CONDITION NOTES: compound at 10 microM, CDCA = 100%
FXR (% of activity compared to 10 µM CDCA) for assorted molecules
Give the value in % but do not write % after it.

Example molecules with recorded FXR (% of activity compared to 10 µM CDCA):
> print(dat)
                                   molecule  recorded.result
1      COC(=O)c1cc(O)cc(OCc2ccc3ccccc3n2)c1            12.78
2  COC(=O)c1ccc(-c2ccc(OCc3ccc4ccccc4n3)cc2)cc1             6.83
3  COC(=O)c1cccc(OCc2ccc3ccccc3n2)c1 [CHIN104, Methyl 3-(Quinolin-2-ylmethoxy)Benzoate]            32.46
4           OCc1cc(O)cc(OCc2ccc3ccccc3n2)c1             5.92
5  COC(=O)c1cccc(-c2ccc(OCc3ccc4ccccc4n3)cc2)c1            11.14

So, "O=C(O)c1ccc(-c2ccc(OCc3ccc4ccccc4n3)cc2)cc1" ? Its FXR (% of activity compared to 10 µM CDCA) was 12.76

So, "O=C(O)c1cccc(-c2ccc(OCc3ccc4ccccc4n3)cc2)c1" ? Its FXR (% of activity compared to 10 µM CDCA) was 8.9

So, "O=C(O)c1cc(O)cc(OCc2ccc3ccccc3n2)c1" ? Its FXR (% of activity compared to 10 µM CDCA) was 8.22

So, "OCc1cccc(-c2ccc(OCc3ccc4ccccc4n3)cc2)c1" ? Its FXR (% of activity compared to 10 µM CDCA) was 8.22

====

# EXPERIMENTAL SYSTEM: CysLT1R (Homo sapiens)
# Construct: Eurofins Cerep-Panlabs (France)
# Sequence (Q9Y271 whole entry): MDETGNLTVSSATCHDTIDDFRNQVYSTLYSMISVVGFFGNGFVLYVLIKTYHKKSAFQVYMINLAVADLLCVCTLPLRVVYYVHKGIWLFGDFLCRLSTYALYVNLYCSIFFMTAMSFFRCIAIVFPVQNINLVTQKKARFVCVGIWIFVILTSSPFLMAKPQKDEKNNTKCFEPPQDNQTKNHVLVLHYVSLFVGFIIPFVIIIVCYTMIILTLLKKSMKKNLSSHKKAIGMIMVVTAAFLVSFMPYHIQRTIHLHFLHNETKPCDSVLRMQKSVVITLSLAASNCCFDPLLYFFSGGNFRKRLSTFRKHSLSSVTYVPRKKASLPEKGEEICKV
# METHOD NOTES: CysLT1R antagonistic activity assay (Ca2+ fluorescence, 0.1 nM LTD4; Eurofins Cerep-Panlabs)
# CONDITION NOTES: antagonism of 0.1 nM LTD4; read-out: CysLTR1 ICso
# Description: In this table, the activities of the compounds are compared with specific reference compounds, namely CDCA for FXR, TLCA for TGR5/GPBAR1, MK571 for CysLT1R. […] The antagonistic activity assay was performed by Eurofins Cerep-Panlabs (France). […] The plates are then placed in a microplate reader (CellLux, PerkinElmer), which is used to add the compounds to be tested or the HBSS buffer and then after 5 min with a 0.1 nM LTD4 or HBSS buffer solution (used as control). […]
PARAMETER MEASURED: IC50 (µM)
Give the value in µM but do not write µM after it.

So, O=C(O)c1cccc(-c2ccc(OCc3ccc4ccccc4n3)cc2)c1 [CHIN117] ? Its IC50 was 5.67
